test system: B16F10 cells; assay: Proliferation assay (B16F10 cell line); assay type: cell-based; settings: Mus musculus, B16-F10, 96 h, B16F10, 4 days, crystal violet; read-out: Biological Assay 2: Proliferation assay (B16F10 cell line) median IC50
value_kind: IC50 (nM)

A. CCOc1cc(F)c(Cn2nc(-c3ncc(OC(F)F)c(N(c4ccncc4)C(F)F)n3)c3ccccc32)c(F)c1 [Example 10-2]
B. COc1cnc(-c2nn(Cc3c(Cl)ccc(NC(C)=O)c3Cl)c3ccccc23)nc1Nc1ccncc1 [Example 41-1]
I need your help: which of the pair A , B has higher IC50? Let me know the label of the one you choose.
B
(B: 1800 nM, A: 900 nM)

1. CNC(=O)c1ccc(Cl)c(Cn2nc(-c3ncc(OC)c(Nc4ccncc4)n3)c3ccccc32)c1Cl [Example 20-1]
2. COc1cnc(-c2nn(Cc3c(F)ccc(OC)c3F)c3ccccc23)nc1Nc1ccncc1 [Example 2-4-1]
3. CN(C)CCOc1cnc(-c2nn(Cc3ccccc3F)c3ccccc23)nc1Nc1ccncc1 [Example 4-4]
4. CCOc1cc(F)c(Cn2nc(-c3ncc(OCCO)c(Nc4ccncc4)n3)c3ccccc32)c(F)c1 [Example 13-1]
# ascending order, key=IC50 Quick reminder: the answer is the labels in the order asked.
3, 4, 2, 1
(3: 500 nM, 4: 790 nM, 2: 1200 nM, 1: 2400 nM)

Each recorded value in this set is attributed to patent US10266548B2.
